# Tested on: Muscarinic acetylcholine receptor M2 (Cavia porcellus)
# experimentDescription: Antagonist affinity at muscarinic acetylcholine receptor (mAChR) of guinea pig left atrium (M2)
# measurementParameters: Cardiac atrium
Some compounds, each annotated with its measured pKB.
Answer with a bare number; do not write a unit.

structure	endpointValue
COc1ccccc1CNCCCCCCNCCCCCCNCCCCCCNCCCCCCNCc1ccccc1OC	6.98

// query Lab note: need pKB for COc1ccccc1CN(C)CCCCCCN(C)CCCCCCCCN(C)CCCCCCN(C)Cc1ccccc1OC on Muscarinic acetylcholine receptor M2 (Cavia porcellus), anyone have it?
// result 6.79

// query Quick check: pKB on Muscarinic acetylcholine receptor M2 (Cavia porcellus), item COc1ccccc1CNCCCNCCCCCCNCCCCCCCCCCCCNCCCCCCNCCCNCc1ccccc1OC ?
// result 6.5

The origin of these recorded values is ChEMBL document CHEMBL1135934.
